Target: T1, Human soluble IL6-R (human, UniProt P08887 20-358)
T1 construct: Bought soluble receptor; biotinylated in some Alphascreen assays; also called sIL6-R; hIL-6R
T1 sequence (looked up): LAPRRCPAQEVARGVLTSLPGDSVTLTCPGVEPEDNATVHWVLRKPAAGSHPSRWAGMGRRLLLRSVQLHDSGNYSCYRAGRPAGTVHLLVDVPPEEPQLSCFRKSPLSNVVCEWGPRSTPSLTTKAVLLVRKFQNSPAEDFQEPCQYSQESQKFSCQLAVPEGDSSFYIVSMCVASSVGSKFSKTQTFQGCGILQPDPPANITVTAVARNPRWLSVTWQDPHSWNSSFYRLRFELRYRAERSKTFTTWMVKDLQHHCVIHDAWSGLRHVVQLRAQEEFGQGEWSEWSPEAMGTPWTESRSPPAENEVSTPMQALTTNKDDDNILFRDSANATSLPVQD
Assay: SPR (Biacore 3000), IL6-R on CM5 chip
endpoint: koff (s⁻¹)

A = IL6R64 (VHH, Humanized variant of IL6R03) VHH: EVQLVESGGGLVQPGGSLRLSCAASGSIFKVNAMGWYRQAPGKGRELVAGIISGGSTNYADSVKGRLTISRDNAKNTVYLQMNSLRPEDTAVYYCAFVTTNSDYDLGRDYWGQGTLVTVSS
B = IL6R62 (VHH, Humanized variant of IL6R03) VHH: EVQLVESGGGLVQPGGSLRLSCAASGSIFKVNAMGWYRQAPGKGRELVAGIISGGSTNYADSVKGRFTISRDNAKNTVYLQMNSLRPEDTAVYYCSFVTTNSDYDLGRDYWGQGTLVTVSS
**Query** Hi! Which is lower in terms of koff, the first one A or the second one B ? Returns: label corresponding to the selected item.
**Result** A
